Experimental Target: UniProt P29274
Test Summary: Displacement of [3H]ZM241385 from human recombinant adenosine A2A receptor expressed in human HeLa cells at 1 uM by microplate beta scintillation counter
Assay type: cell-based
Measurement Label: Activity (%)

Previously resolved entries follow.
Compound	Activity [%]
CCn1c(=O)c2[nH]c(Cc3c(F)cccc3F)nc2n(Cc2ccccc2)c1=O	1
CCCn1c(=O)c2c(nc(-c3ccccc3)n2C)n(CCSCC)c1=O	2
O=c1c2[nH]c(-c3cccs3)nc2n(CC2CCCCC2)c(=O)n1CC1CCCCC1	14
CCn1c(=O)c2[nH]c(Cc3c(F)cccc3F)nc2n(Cc2cccs2)c1=O	21
CCCn1c(=O)c2[nH]c(Cc3ccccc3)nc2n(CC[S+]([O-])CC)c1=O (stereo not given)	7

(P) CCn1c(=O)c2[nH]c(Cc3ccccc3)nc2n(CCS(=O)(=O)CC)c1=O
(Q) CCCn1c(=O)c2[nH]c(Cc3ccccc3)nc2n(CCS(=O)(=O)CC)c1=O
Compare P and Q by numeric Activity and name the larger one. State your choice using its label.
Q

---

Experimental Target: Adenosine receptor A2a (Homo sapiens)
Sequence (P29274 whole entry): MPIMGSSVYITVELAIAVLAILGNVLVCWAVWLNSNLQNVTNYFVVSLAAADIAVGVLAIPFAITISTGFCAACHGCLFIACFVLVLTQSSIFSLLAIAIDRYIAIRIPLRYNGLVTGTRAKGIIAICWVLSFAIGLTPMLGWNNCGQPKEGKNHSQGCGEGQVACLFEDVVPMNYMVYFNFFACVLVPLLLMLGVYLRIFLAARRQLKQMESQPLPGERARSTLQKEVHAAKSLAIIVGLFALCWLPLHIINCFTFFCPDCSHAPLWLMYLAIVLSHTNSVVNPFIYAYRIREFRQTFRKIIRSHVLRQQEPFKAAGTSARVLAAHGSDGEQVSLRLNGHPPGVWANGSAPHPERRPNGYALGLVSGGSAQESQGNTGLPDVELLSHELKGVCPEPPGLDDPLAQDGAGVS
Test Summary: Displacement of [3H]ZM241385 from human recombinant adenosine A2A receptor expressed in human HeLa cells at 1 uM by microplate beta scintillation counter
Type: cell-based
Measurement Label: Activity (%)

Previously resolved entries follow.
Compound	Activity [%]
CCn1c(=O)c2[nH]c(Cc3ccco3)nc2n(Cc2ccccc2)c1=O	9
CCCn1c(=O)c2[nH]c(Cc3ccccc3)nc2n(CCSCC)c1=O	8

(1) CCCn1c(=O)c2[nH]c(-c3ccccc3)nc2n(CC[S+]([O-])CC)c1=O (centres undefined)
(2) CCOCCn1c(=O)n(CC)c(=O)c2[nH]c(-c3ccc(-c4ccccc4)cc3)nc21
Compare 1 and 2 by numeric Activity and name the larger one. State your choice using its label.
2

---

Experimental Target: Adenosine receptor A1 (Homo sapiens) (UniProt P30542)
Test Summary: Displacement of [3H]DPCPX from human recombinant adenosine A1 receptor expressed in CHO cells at 1 uM by microplate beta scintillation counter
Type: cell-based
Measurement Label: Activity (%)

Previously resolved entries follow.
Compound	Experimental Target	Measurement Label	Measured Value
CCn1c(=O)c2[nH]c(Cc3c(F)cccc3F)nc2n(Cc2ccccc2)c1=O	Adenosine receptor A1 (Homo sapiens) (UniProt P30542)	Activity	23
CCCn1c(=O)c2c(nc(-c3ccccc3)n2C)n(CC2CCCO2)c1=O (stereo not given)	Adenosine receptor A1 (Homo sapiens) (UniProt P30542)	Activity	38
CCCn1c(=O)c2[nH]c(Cc3ccccc3)nc2n(CCSCC)c1=O	Adenosine receptor A1 (Homo sapiens) (UniProt P30542)	Activity	33

(I) CCn1c(=O)c2[nH]c(Cc3ccco3)nc2n(Cc2ccccc2)c1=O
(II) O=c1c2[nH]c(Cc3cccs3)nc2n(CC2CCCCC2)c(=O)n1CC1CCCCC1
(III) CCSCCn1c(=O)n(CC)c(=O)c2[nH]c(-c3ccc(-c4ccccc4)cc3)nc21
(IV) CCCn1c(=O)c2[nH]c(-c3ccccc3)nc2n(CCOCC)c1=O
(V) CCCn1c(=O)c2[nH]c(Cc3ccccc3)nc2n(CC2CCCO2)c1=O (stereo not given)
Sort (5 compounds) by Activity: min first. Respond with the label ranking, as requested.
V, II, III, I, IV

---

Experimental Target: Adenosine receptor A2a (Homo sapiens)
Test Summary: Displacement of [3H]ZM241385 from human recombinant adenosine A2A receptor expressed in human HeLa cells at 1 uM by microplate beta scintillation counter
Type: cell-based
Measurement Label: Activity (%)

Previously resolved entries follow.
Compound	Experimental Target	Measurement Label	Unit String	Measured Value
CCCn1c(=O)c2[nH]c(-c3ccccc3)nc2n(CCOCC)c1=O	Adenosine receptor A2a (Homo sapiens)	Activity	%	6
Cn1c(=O)c2[nH]c(-c3cccs3)nc2n(CC2CCCCC2)c1=O	Adenosine receptor A2a (Homo sapiens)	Activity	%	29
CCCn1c(=O)c2c(nc(-c3ccccc3)n2C)n(CC2CCCO2)c1=O (stereo not given)	Adenosine receptor A2a (Homo sapiens)	Activity	%	25
CCCn1c(=O)c2[nH]c(Cc3ccccc3)nc2n(CC2CCCO2)c1=O (stereo not given)	Adenosine receptor A2a (Homo sapiens)	Activity	%	24
CCn1c(=O)c2[nH]c(Cc3cccs3)nc2n(Cc2ccccc2)c1=O	Adenosine receptor A2a (Homo sapiens)	Activity	%	6
CCSCCn1c(=O)n(CC)c(=O)c2[nH]c(-c3ccc(-c4ccccc4)cc3)nc21	Adenosine receptor A2a (Homo sapiens)	Activity	%	4
CCn1c(=O)c2[nH]c(-c3ccccc3)nc2n(CCS(=O)(=O)CC)c1=O	Adenosine receptor A2a (Homo sapiens)	Activity	%	0
CCSCCn1c(=O)n(CC)c(=O)c2[nH]c(-c3ccccc3)nc21	Adenosine receptor A2a (Homo sapiens)	Activity	%	12

(1) CCn1c(=O)c2[nH]c(Cc3ccco3)nc2n(Cc2cccs2)c1=O
(2) CCn1c(=O)c2c(nc(Cc3c(F)cccc3F)n2C)n(Cc2ccccc2)c1=O
Just tell me: smaller Activity value, 1 or 2 ? State your choice using its label.
1
(1: 19%, 2: 28%)

---

Experimental Target: Adenosine receptor A2b (Homo sapiens) (UniProt P29275)
Sequence (P29275 whole entry): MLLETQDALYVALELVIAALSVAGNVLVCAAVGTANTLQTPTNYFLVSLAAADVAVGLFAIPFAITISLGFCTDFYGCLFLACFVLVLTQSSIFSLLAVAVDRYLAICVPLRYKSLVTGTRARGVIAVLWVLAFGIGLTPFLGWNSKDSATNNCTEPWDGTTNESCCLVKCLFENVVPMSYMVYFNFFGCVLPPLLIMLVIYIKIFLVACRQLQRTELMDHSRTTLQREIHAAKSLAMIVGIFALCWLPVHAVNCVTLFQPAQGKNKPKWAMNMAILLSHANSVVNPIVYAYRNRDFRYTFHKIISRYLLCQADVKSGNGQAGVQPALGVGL
Test Summary: Displacement of [3H]DPCPX from human recombinant adenosine A2B receptor expressed in HEK293 cells at 1 uM by microplate beta scintillation counter
Assay type: cell-based
Measurement Label: Activity (%)

Previously resolved entries follow.
Molecule	Activity [%]
CCSCCn1c(=O)n(CC)c(=O)c2[nH]c(Cc3ccccc3)nc21	5
CCCn1c(=O)c2[nH]c(Cc3ccccc3)nc2n(CC[S+]([O-])CC)c1=O (configuration not stated)	1

(a) CCn1c(=O)c2c(nc(Cc3c(F)cccc3F)n2C)n(Cc2ccccc2)c1=O
(b) O=c1c2[nH]c(Cc3cccs3)nc2n(CC2CCCCC2)c(=O)n1CC1CCCCC1
(c) CCn1c(=O)c2[nH]c(Cc3ccccc3)nc2n(CC[S+]([O-])CC)c1=O (configuration not stated)
List from greatest to least Activity. Respond with the label ranking, as requested.
a, b, c

---

Organism: Homo sapiens
Test Summary: Selectivity ratio of Ki for human adenosine A2A receptor to Ki for human adenosine A2B receptor
Measurement Label: Ratio Ki

Previously resolved entries follow.
CCn1c(=O)c2c(nc(Cc3cccs3)n2C)n(Cc2ccccc2)c1=O 2.1
CCCn1c(=O)c2[nH]c(-c3ccccc3)nc2n(CCSCC)c1=O 7.6
CCn1c(=O)c2c(nc(Cc3c(F)cccc3F)n2C)n(Cc2cccs2)c1=O 1.3
CCn1c(=O)c2c(nc(Cc3ccco3)n2C)n(Cc2cccs2)c1=O 8.1

(A) CCn1c(=O)c2c(nc(Cc3cccs3)n2C)n(Cc2cccs2)c1=O
(B) CCn1c(=O)c2[nH]c(Cc3cccs3)nc2n(Cc2cccs2)c1=O
(C) CCn1c(=O)c2c(nc(Cc3ccco3)n2C)n(Cc2ccccc2)c1=O
List from greatest to least Ratio Ki. Respond with the label ranking, as requested.
B, C, A

---

Species: Homo sapiens
Test Summary: Selectivity ratio of Ki for human adenosine A3 receptor to Ki for human adenosine A2B receptor
Measurement Label: Ratio Ki

Previously resolved entries follow.
Molecule	Measurement Label	Measured Value
CCn1c(=O)c2[nH]c(Cc3cccs3)nc2n(Cc2cccs2)c1=O	Ratio Ki	5.9
CCCn1c(=O)c2[nH]c(-c3ccccc3)nc2n(CC[S+]([O-])CC)c1=O (centres undefined)	Ratio Ki	0.4

(a) CCCn1c(=O)c2[nH]c(-c3ccccc3)nc2n(CCSCC)c1=O
(b) CCSCCn1c(=O)n(CC)c(=O)c2[nH]c(-c3ccccc3)nc21
Just tell me: smaller Ratio Ki value, a or b ? State your choice using its label.
a

---

Experimental Target: Adenosine receptor A1 (Homo sapiens) (UniProt P30542)
Sequence (whole entry): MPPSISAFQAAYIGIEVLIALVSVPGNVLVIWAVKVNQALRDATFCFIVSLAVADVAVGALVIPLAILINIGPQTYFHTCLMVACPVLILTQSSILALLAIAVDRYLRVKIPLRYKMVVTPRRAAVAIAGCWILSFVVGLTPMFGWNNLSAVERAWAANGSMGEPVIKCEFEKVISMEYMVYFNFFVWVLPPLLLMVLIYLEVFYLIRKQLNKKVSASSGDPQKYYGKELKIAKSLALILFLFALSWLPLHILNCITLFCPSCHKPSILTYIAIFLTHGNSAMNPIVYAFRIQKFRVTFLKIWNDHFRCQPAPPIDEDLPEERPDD
Test Summary: Displacement of [3H]DPCPX from human recombinant adenosine A1 receptor expressed in CHO cells at 1 uM by microplate beta scintillation counter
Type: cell-based
Measurement Label: Activity (%)

Molecule	Measurement Label	Measured Value
CCn1c(=O)c2[nH]c(-c3ccccc3)nc2n(CCS(=O)(=O)CC)c1=O	Activity	35
CCn1c(=O)c2[nH]c(Cc3ccccc3)nc2n(CCS(=O)(=O)CC)c1=O	Activity	6
CCn1c(=O)c2[nH]c(Cc3cccs3)nc2n(Cc2ccccc2)c1=O	Activity	22
O=c1c2[nH]c(-c3cccs3)nc2n(CC2CCCCC2)c(=O)n1CC1CCCCC1	Activity	2
CCCn1c(=O)c2[nH]c(Cc3ccccc3)nc2n(CCS(=O)(=O)CC)c1=O	Activity	15

(I) CCn1c(=O)c2[nH]c(Cc3ccccc3)nc2n(CC[S+]([O-])CC)c1=O (centres undefined)
(II) CCCn1c(=O)c2[nH]c(Cc3ccccc3)nc2n(CC[S+]([O-])CC)c1=O (centres undefined)
Compare I and II by numeric Activity and name the larger one. State your choice using its label.
II
(II: 10%, I: 5%)

(a) CCCn1c(=O)c2c(nc(-c3ccccc3)n2C)n(CCSCC)c1=O
(b) CCSCCn1c(=O)n(CC)c(=O)c2[nH]c(Cc3ccccc3)nc21
Just tell me: smaller Activity value, a or b ? State your choice using its label.
a
(a: 17%, b: 34%)

(A) CCOCCn1c(=O)n(CC)c(=O)c2[nH]c(-c3ccc(-c4ccccc4)cc3)nc21
(B) CCn1c(=O)c2c(nc(Cc3ccco3)n2C)n(Cc2ccccc2)c1=O
Just tell me: smaller Activity value, A or B ? State your choice using its label.
A
(A: 19%, B: 29%)

(P) Cn1c(=O)c2[nH]c(Cc3cccs3)nc2n(CC2CCCCC2)c1=O
(Q) CCn1c(=O)c2[nH]c(-c3ccccc3)nc2n(CC[S+]([O-])CC)c1=O (centres undefined)
Just tell me: smaller Activity value, P or Q ? State your choice using its label.
Q
(Q: 29%, P: 42%)

Hey, just so you know, these numbers are from ChEMBL document CHEMBL1157555.
